Reference source for all entries: PubChem BioAssay AID192

Test system: BDF1 mice, B16 melanoma ip, median survival T/C
Experiment: NCI In Vivo Anticancer Drug Screen. Data for tumor model B16 Melanoma (intraperitoneal) in B6D2F1 (BDF1) mice
Conditions: endpoint: median survival time; dose: 0.25 mg/kg/injection; schedule: Q01DX009 (ip); vehicle: saline
Inconclusive results and toxic doses are left out. The calls were made as follows: active = survival T/C of 150% or more; inactive = T/C below 125% in these data.
In this exercise, the only acceptable responses are 1 (active), 0 (inactive)

Consider the worked cases shown below.
# COMPOUND, GROUP LABEL
data = [
    ("C(/C=C/C=C/N1CCCCC1)=[N+]1CCCCC1", 0),
    ("CN(Cc1cnc2nc(N)nc(N)c2n1)c1ccc(C(=O)N[C@@H](CCC(=O)O)C(=O)O)cc1", 0),
    ("COC(COC(N)=O)C1=C(N2CC2)C(=O)C(C)=C(N2CC2)C1=O (stereo unspecified)", 1),
    ("O=C1C(N2CC2)=C(N2CCCC(O)C2)C(=O)C(N2CC2)=C1N1CCCC(O)C1 (stereo unspecified)", 0),
    ("COc1ccc2nc3cc(Cl)ccc3c(NC(C)CCCN(CCCl)CCCl)c2c1 (stereo unspecified)", 0),
]

Please turn your attention to the following entry.
Query: recorded result category for C/C=C1\C[C@@H]2C(OC)Nc3cc(O)c(OC)cc3C(=O)N2C1 (stereo partly specified) in this test
0
